As shown below, each of these compounds has a reported IC50 value.
# EXPERIMENTAL_DETAILS: Inhibition of constitutively activated GST-tagged human MEK1 S218D/[…] (MEK1DD) mutant assessed blocking of increase in bovine MBP kinase activity of recombinant His6-tagged ERK2 using [gamma32P]ATP by liquid scintillation counting method
Lab book: enter the figure in µM, no units written.

- SMILES_REPR: "COc1cccc(-c2cc(=O)c3cc(Cl)ccc3o2)c1N"
  RESULT_VALUE: 6.4

Prompt: Bench note: what IC50 did `CCOc1cccc(-c2cc(=O)c3ccccc3o2)c1N` show?
Response: 1.9

Prompt: Then `CCCCNc1cc(Cl)cc2c(=O)cc(-c3cccc(OC)c3N)oc12` ?
Response: 1.9

Prompt: Then `COc1cccc(-c2cc(=O)c3cc(Cl)cc(CCCN)c3o2)c1N` ?
Response: 4.4

----------
# Test system: A549
# EXPERIMENTAL_DETAILS: Antiproliferative activity against human A549 cells after 5 days by WST1 assay
# Assay type: functional, cell-based
# CONDITIONS_USED: A549, 120 h
ENDPOINT_NAME: IC50 (µM)
Lab book: enter the figure in µM, no units written.

- SMILES_REPR: "COc1cccc(-c2cc(=O)c3cc(Cl)cc(NCCCO)c3o2)c1N"
  UNIT_NAME: "µM"
  IC50: 12

Prompt: Bench note: what IC50 did `COc1cccc(-c2cc(=O)c3cc(Cl)cc(NCC[C@H](O)CO)c3o2)c1N` show?
Response: 17.4

----------
# TARGET_ENTITY: Dual specificity mitogen-activated protein kinase kinase MEK1/2 (Rattus norvegicus, UniProt Q01986+P36506)
# EXPERIMENTAL_DETAILS: Inhibition of MEK1/2 in rat IEC6 cells assessed as reduction in ERK1/2 loop phosphorylation dosed 30 mins before to stimulation with 10% serum for 5 mins by immunoblotting method
ENDPOINT_NAME: IC50

- SMILES_REPR: "COc1cccc(-c2cc(=O)c3cc(Cl)cc(NC(C)C)c3o2)c1N"
  IC50: "> 100 µM"
- SMILES_REPR: "COc1cccc(-c2cc(=O)c3cc(Cl)ccc3o2)c1N"
  IC50: "> 100 µM"
- SMILES_REPR: "COc1cccc(-c2cc(=O)c3cc(Cl)cc(NCCCO)c3o2)c1N"
  IC50: "1.6 µM"
- SMILES_REPR: "COc1cccc(-c2cc(=O)c3cccc(NCC[C@H](O)CO)c3o2)c1N"
  IC50: "0.073 µM"
- SMILES_REPR: "CCCCNc1cc(Cl)cc2c(=O)cc(-c3cccc(OC)c3N)oc12"
  IC50: "> 100 µM"
- SMILES_REPR: "COc1cccc(-c2cc(=O)c3ccccc3o2)c1N"
  IC50: "4.2 µM"
- SMILES_REPR: "COCCCNc1cc(Cl)cc2c(=O)cc(-c3cccc(OC)c3N)oc12"
  IC50: "> 100 µM"

Continue with the next molecule.
Prompt: Bench note: what IC50 did `COc1cccc(-c2cc(=O)c3cc(Cl)cc(NCc4ccccc4)c3o2)c1N` show?
Response: > 100 µM

----------
As shown below, each of these molecules has a reported IC50 value.
# TARGET_ENTITY: Dual specificity mitogen-activated protein kinase kinase MEK1/2 (Rattus norvegicus, UniProt Q01986+P36506)
# EXPERIMENTAL_DETAILS: Inhibition of MEK1/2 in rat IEC6 cells assessed as reduction in ERK1/2 loop phosphorylation dosed 30 mins before to stimulation with 10% serum for 5 mins by immunoblotting method

Previously resolved entries follow.
- SMILES_REPR: "COc1cccc(-c2cc(=O)c3cc(Cl)cc(NCCCN)c3o2)c1N"
  IC50: "> 100 µM"
- SMILES_REPR: "COc1cccc(-c2cc(=O)c3cc(Cl)cc(NC4CCOCC4)c3o2)c1N"
  IC50: "> 100 µM"

Prompt: Bench note: what IC50 did `COc1cccc(-c2cc(=O)c3cc(Cl)cc(NCCCN(C)C)c3o2)c1N` show?
Response: > 100 µM
